- Tested on: Ebola virus
- test: microbe, parasite or virus in culture
- Format: cell-based, Ebolavirus (EBOV)
- measurement-setup: Zaire ebolavirus, Vero, read-out: IC50 (μM) Vero
Structures can show the parent of a compound that is named as a salt.
Each record's class is read off its IC50 using these ranges: interval 1: < 5 µM; interval 2: ≥ 5 µM and < 10 µM; interval 3: ≥ 10 µM

Bin this entry: COc1ccc(CN2CCN(C(c3ccc(F)cc3)c3ccc(F)cc3)CC2)c(OC)c1OC [Lomerizine Dihydrochloride] interval 3

In plain terms, what class is CCN(CC)CCCC(C)Nc1c2ccc(Cl)cc2nc2ccc(OC)cc12 (stereo not shown) [Quinacrine Dihydrochloride] ? interval 2

GET /class?item= CCN(CC)CCNc1ccc(CO)c2sc3ccccc3c(=O)c12 interval 3

State the band of CN(C)CCOc1ccc(/C(=C(/CCCl)c2ccccc2)c2ccccc2)cc1 [Toremifene Citrate] interval 1

Textbook exercise: identify the category of the molecule given here, O=c1[nH]c2ccccc2n1C1CCN(CCCC(c2ccc(F)cc2)c2ccc(F)cc2)CC1 [Pimozide] , according to its measured value. interval 1

Just checking, what class would you give Cc1nc(Nc2ncc(C(=O)Nc3c(C)cccc3Cl)s2)cc(N2CCN(CCO)CC2)n1 here? interval 3

Could you tell me which band CCC(C)(C)C(=O)O[C@H]1C[C@@H](C)C=C2C=C[C@H](C)[C@H](CC[C@@H]3C[C@@H](O)CC(=O)O3)[C@H]21 belongs to? interval 3

Looking at Fc1ccc([C@@H]2CCNC[C@H]2COc2ccc3c(c2)OCO3)cc1 [Paroxetine Hydrochloride Hemihydrate] , which class would you pick? interval 2

State the band of Nc1ncn([C@@H]2O[C@H](CO)[C@@H](O)[C@H]2O)c(=O)n1 interval 2

Class (by measured IC50) for O=C1C(O)=C([C@H]2CC[C@H](c3ccc(Cl)cc3)CC2)C(=O)c2ccccc21 interval 1

Lab note: which band did CO[C@H]1C[C@H](O[C@H]2CC[C@]3(C=O)[C@H]4CC[C@]5(C)[C@@H](C6=CC(=O)OC6)CC[C@]5(O)[C@@H]4CC[C@]3(O)C2)O[C@H](C)[C@H]1O land in? interval 1
